target: T1, human full-length recombinant tau (2N4R) (human, UniProt P10636 2-758); assay: SPR, Biacore T200, 25 C, mAb captured by anti-Fc on CM4 chip, tau in solution, 1:1 Langmuir fit
T1 construct: also called full length tau protein; full-length recombinant Tau protein
T1 sequence (P10636 other isoform, or with tags, fused parts or gaps limits assumed): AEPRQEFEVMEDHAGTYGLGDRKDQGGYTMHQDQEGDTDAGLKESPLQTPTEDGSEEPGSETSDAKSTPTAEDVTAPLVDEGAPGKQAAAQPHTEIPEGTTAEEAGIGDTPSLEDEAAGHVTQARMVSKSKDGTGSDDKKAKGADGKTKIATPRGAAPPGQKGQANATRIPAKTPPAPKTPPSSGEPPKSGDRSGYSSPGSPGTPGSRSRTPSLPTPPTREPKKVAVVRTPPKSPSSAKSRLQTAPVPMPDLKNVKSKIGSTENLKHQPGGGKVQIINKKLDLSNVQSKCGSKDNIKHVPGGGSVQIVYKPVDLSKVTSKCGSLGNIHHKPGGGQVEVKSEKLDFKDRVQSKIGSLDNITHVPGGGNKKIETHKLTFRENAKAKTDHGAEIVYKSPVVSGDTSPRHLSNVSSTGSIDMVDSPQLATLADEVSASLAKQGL
METRIC: kon (M⁻¹ s⁻¹)
// note: answer is a bare numeric in M⁻¹ s⁻¹

Some binders with known kon results, for comparison:
[[record]]
binder = "PT/66 anti-PHF-Tau monoclonal Ab (mouse parent) (antibody, V domains shown, Murine mAb) VH: QVQLQQPGAELVKPGASVKMSCKASGYTFTSYWITWVKQRPGQGLEWIGDIHPGRGSTKSNEKFKSKATLTVDTSSSTAYMQFSSLTSEDSAVYYCARRWGFDYWGQGTTLTVSS VL: DIVITQDELSNPVTSGESVSISCRSSKSLLYKDGKTYLNWFLQRPGQSPQLLIYLMSTRASGVSDRFSGSGSGTDFTLEISRVKAEDVGVYYCQQLVDYPLTFGAGTKLELK"
units_symbol = "M⁻¹ s⁻¹"
readout_value = 450000

[[record]]
binder = "PT1B901 (antibody, human IgG1, kappa, V domains shown, also called humanized PT/66 variant with G44L in LCDR1) VH: QVQLVQSGAEVKKPGASVKVSCKASGYTFTSYWITWVRQAPGQGLEWMGDIHPGRGSTKYAQKLQGRVTLTTDTSTSTAYMELRSLRSDDTAVYYCARRWGFDYWGQGTLVTVSS VL: DIVITQTPLSLPVTPGEPASISCRSSKSLLYKDLKTYLNWFLQKPGQSPQLLIYLMSTRASGVPDRFSGSGSGTDFTLKISRVEAEDVGVYYCQQLVDYPLTFGQGTKLEIKR"
units_symbol = "M⁻¹ s⁻¹"
readout_value = 300000

[[record]]
binder = "PT1B545 (antibody, mouse IgG2a, kappa, V domains shown, Recombinant version of the parent mAb PT/66, with mouse constant regions; also called rec. parent; recombinant parent of PT/66) VH: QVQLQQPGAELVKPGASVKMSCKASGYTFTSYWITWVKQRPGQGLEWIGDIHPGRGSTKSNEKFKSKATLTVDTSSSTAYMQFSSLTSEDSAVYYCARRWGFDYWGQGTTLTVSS VL: DIVITQDELSNPVTSGESVSISCRSSKSLLYKDGKTYLNWFLQRPGQSPQLLIYLMSTRASGVSDRFSGSGSGTDFTLEISRVKAEDVGVYYCQQLVDYPLTFGAGTKLELKR"
units_symbol = "M⁻¹ s⁻¹"
readout_value = 510000


Next binder, kon to be filled in.
Exam item: Any idea what kon was measured for PT1B635 (antibody, human IgG1, kappa, V domains shown, also called humanized PT/66 variant) VH: QVQLVQSGAEVKKPGASVKVSCKASGYTFTSYWITWVRQAPGQGLEWMGDIHPGRGSTKYAQKLQGRVTLTTDTSTSTAYMELRSLRSDDTAVYYCARRWGFDYWGQGTLVTVSS VL: DIVITQTPLSLPVTPGEPASISCRSSKSLLYKDGKTYLNWFLQKPGQSPQLLIYLMSTRASGVPDRFSGSGSGTDFTLKISRVEAEDVGVYYCQQLVDYPLTFGQGTKLEIKR ?
Marked response: 370000
